Reported Ki values for the following molecules.
Molecular target: CB2 receptor (Rattus norvegicus)
Construct: from tissue; host or cells: rat spleen membranes
Sequence (Q9QZN9 1-360): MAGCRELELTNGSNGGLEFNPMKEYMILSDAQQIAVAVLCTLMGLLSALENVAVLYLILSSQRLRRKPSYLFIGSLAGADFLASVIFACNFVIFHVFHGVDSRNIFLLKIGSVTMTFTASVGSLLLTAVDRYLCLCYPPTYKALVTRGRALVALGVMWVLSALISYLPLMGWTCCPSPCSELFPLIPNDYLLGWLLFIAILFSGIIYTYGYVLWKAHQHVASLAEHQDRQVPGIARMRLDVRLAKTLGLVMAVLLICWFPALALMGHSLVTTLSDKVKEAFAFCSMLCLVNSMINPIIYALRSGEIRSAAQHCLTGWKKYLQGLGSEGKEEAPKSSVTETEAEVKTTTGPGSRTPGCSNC
Test: [3H]CP55940 binding assay, CB2 receptor (rat spleen membrane)
Settings: [3H]CP55940 0.5 nmol/L, 25° C. 1 hour

Recorded results for 3 molecules are shown here.
{"STRUCTURE SMILES": "CCN(CC)C(=S)c1cc2nc(C(C)(C)C)c(CC3CCOCC3)n2cn1", "MEASURED PARAMETER": "Ki", "OBSERVED MEASUREMENT": "< 1000 nM"}
{"STRUCTURE SMILES": "CC(C)N(C)C(=O)c1ccn2c(CC3CCOCC3)c(C(C)(C)C)nc2c1", "MEASURED PARAMETER": "Ki", "OBSERVED MEASUREMENT": "< 1000 nM"}
{"STRUCTURE SMILES": "CCN(CC)C(=O)c1cc2nc(C(C)(C)C)c(CC3CCOCC3)n2cn1", "MEASURED PARAMETER": "Ki", "OBSERVED MEASUREMENT": "< 1000 nM"}

Ask | Item under review: CCN(CC)C(=O)c1ccn2c(CC3CCOCC3)c(C(C)(C)C)nc2c1 . Reported Ki?
Reply | < 1000 nM
